# log10 Ki per entry for Histamine H3 receptor (Homo sapiens, UniProt Q9Y5N1)
All values: log10 Ki [nM].

CC1CCCCN1CCc1cc2cc(-c3ccc(C#N)cc3)ccc2o1 (stereo unspecified): 0.76
O=C(c1ccc(-c2ccc3oc(CCN4CCOCC4)cc3c2)cc1)N1CCOCC1: 1.65
N#Cc1ccc(-c2ccc3oc(CCN4CCCCCC4)cc3c2)cc1: 0.89
C[C@@H]1CCCN1CCc1cc2cc(-c3ccc(C(=O)N4CCOCC4)cn3)ccc2o1: -0.26
O=C(c1ccc(-c2ccc3oc(CCN4CCCC4)cc3c2)nc1)N1CCOCC1: 0.59
C[C@@H]1CC[C@@H](C)N1CCc1cc2cc(-c3ccc(C#N)cc3)ccc2o1: 0.71
O=C(c1ccc(-c2ccc3oc(CCN4CC[C@@H](O)C4)cc3c2)cc1)N1CCOCC1: 0.79
N#Cc1ccc(-c2ccc3oc(CCN4CCC[C@@H]4CO)cc3c2)cc1: 1.26
O=C(c1ccc(-c2ccc3oc(CCN4CC=CCC4)cc3c2)cc1)N1CCOCC1: 0.77
CN(C)[C@@H]1CCN(CCc2cc3cc(-c4ccc(C#N)cc4)ccc3o2)C1: 1.20

Query compound follows.
In: Form field: log10 Ki recorded for CC1CCCCN1CCc1cc2cc(-c3ccc(C(=O)N4CCOCC4)cc3)ccc2o1 (stereo unspecified) with Histamine H3 receptor (Homo sapiens, UniProt Q9Y5N1) (enter value)
Out: 0.48

* * *

# subjectOfTest: Histamine H3 receptor (Rattus norvegicus, UniProt Q9QYN8)
# Sequence (Q9QYN8 whole entry): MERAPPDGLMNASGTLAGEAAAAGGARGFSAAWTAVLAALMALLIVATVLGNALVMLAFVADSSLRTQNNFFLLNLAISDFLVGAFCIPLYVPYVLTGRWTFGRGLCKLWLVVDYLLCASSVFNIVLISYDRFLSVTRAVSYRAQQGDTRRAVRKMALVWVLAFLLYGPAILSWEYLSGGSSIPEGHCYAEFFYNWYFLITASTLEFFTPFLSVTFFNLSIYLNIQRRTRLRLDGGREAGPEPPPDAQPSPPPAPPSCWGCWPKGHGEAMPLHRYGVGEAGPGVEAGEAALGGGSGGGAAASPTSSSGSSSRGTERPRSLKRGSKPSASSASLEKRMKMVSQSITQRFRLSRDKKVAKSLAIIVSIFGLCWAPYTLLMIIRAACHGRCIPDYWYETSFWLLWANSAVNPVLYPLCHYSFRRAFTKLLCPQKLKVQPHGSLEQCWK
# protocolSummary: Binding potency by displacement of [3H]N-alpha-methyl histamine from histamine H3 receptor of rat cortical membranes
# Type: cell membranes, Membrane
readoutLabel: pKi
Value format note: pKi is -log10 of concentration (mol/L); just state the number.

In: Request - read-out pKi | tested on Histamine H3 receptor (Rattus norvegicus, UniProt Q9QYN8) | compound C[C@@H]1CCC[C@H](C)N1CCc1cc2cc(-c3ccc(C(=O)N4CCOCC4)cn3)ccc2o1
Out: 7.35

* * *

# subjectOfTest: Histamine H3 receptor (Rattus norvegicus)
# protocolSummary: pBinding potency by displacement of [3H]N-alpha-methyl histamine from histamine H3 receptor of rat cortical membranes
# Type: cell membranes, Membrane
readoutLabel: pKi
# pKi: negative log10 of molar concentration; output just the value

In: For Histamine H3 receptor (Rattus norvegicus), provide pKi of C[C@@H]1CCCN1CCc1cc2cc(-c3ccc(C(=O)N4CCOCC4)cc3)ccc2o1 please.
Out: 8.70

* * *

Listed compounds paired with reported Ki
# subjectOfTest: Histamine H3 receptor (Rattus norvegicus)
# protocolSummary: Binding potency was determined by displacement of [3H]N-alpha-methyl histamine from histamine H3 receptor of rat cortical membranes
# Assay type: cell membranes, Membrane
Expressed in µM, but write only the number.

C[C@@H]1CC[C@@H](C)N1CCc1cc2cc(-c3ccc(C#N)cc3)ccc2o1: 0.042

In: Using the record for C[C@@H]1CCC[C@H](C)N1CCc1cc2cc(-c3ccc(C(=O)N4CCOCC4)cn3)ccc2o1 , report its Ki.
Out: 0.0447

In: Please give the measured Ki for this compound: C[C@@H]1CCC[C@H](C)N1CCc1cc2cc(-c3ccc(C#N)cc3)ccc2o1
Out: 0.022

In: What measured Ki goes with N#Cc1ccc(-c2ccc3oc(CCN4CC=CCC4)cc3c2)cc1 ?
Out: 0.05

In: Given CC1CCN(CCc2cc3cc(-c4ccc(C#N)cc4)ccc3o2)CC1 , state its recorded Ki.
Out: 0.016

In: Request the reported Ki associated with CC1CCCCN1CCc1cc2cc(-c3ccc(C(=O)N4CCOCC4)cc3)ccc2o1 (configuration not stated)
Out: 0.014

* * *

Below, each entry is listed with its recorded Ki.
# subjectOfTest: UniProt:Q9QYN8
# protocolSummary: Binding potency was determined by displacement of [3H]N-alpha-methyl histamine from histamine H3 receptor of rat cortical membranes
# Type: cell membranes, Membrane
Write down the numeric answer in nM and omit the unit.

Study these solved cases before continuing.
N#Cc1ccc(-c2ccc3oc(CCN4CCC(O)C4)cc3c2)cc1 (stereo unspecified): 95
CN(C)[C@@H]1CCN(CCc2cc3cc(-c4ccc(C#N)cc4)ccc3o2)C1: 63

In: Provide the documented Ki with UniProt:Q9QYN8 as the system for O=C(c1ccc(-c2ccc3oc(CCN4CCCCCC4)cc3c2)nc1)N1CCOCC1
Out: 33

In: Provide the documented Ki with UniProt:Q9QYN8 as the system for CN(C)[C@H]1CCN(CCc2cc3cc(-c4ccc(C#N)cc4)ccc3o2)C1
Out: 140

In: For UniProt:Q9QYN8, provide Ki of O=C(c1ccc(-c2ccc3oc(CCN4CCCC4)cc3c2)nc1)N1CCOCC1 please.
Out: 29

In: Identify the measured Ki of O=C(c1ccc(-c2ccc3oc(CCN4CCCCC4)cc3c2)nc1)N1CCOCC1 for UniProt:Q9QYN8.
Out: 49
